// provenance: patent US4977161A

Tested on: cholesterol biosynthesis in Hep G2 cells
Test: Test B-1: Inhibition of cholesterol biosynthesis in culture cells (Hep G2)
Type: cell-based
Details: Homo sapiens, HepG2, 100×10^-9 M/l, [2-14C]sodium acetate added at 0 hr, read-out: Inhibition activities by Test B-1
Mark MET for reported inhibition at 0.1 µM of 50% or greater; mark NOT MET for anything smaller.

compound	classAssignment
CC[C@H](C)C(=O)O[C@H]1C[C@H](O)C=C2C=C[C@H](C)[C@H](CC[C@@H](O)C[C@@H](O)CC(=O)O)[C@H]21 [CS-514, reference compound]	NOT MET
CCOC(=O)CC(O)CC(O)/C=C/c1c(C(C)C)nc2onc(-c3ccccc3)c2c1-c1ccc(F)cc1 (centres unmarked)	MET
CC(C)c1nc2onc(-c3ccccc3)c2c(-c2ccc(F)cc2)c1/C=C/C(O)CC(O)CC(=O)O (centres unmarked)	NOT MET
CCOC(=O)CC(=O)CC(O)/C=C/c1c(C(C)C)nc2onc(C)c2c1-c1ccc(F)cc1 (centres unmarked)	MET
